Origin of the recorded values: PubChem BioAssay (NCI)

Test system: T-47D breast
Test: NCI-60 one-dose screen, 48 h (100 = growth as untreated, 0 = no growth, -100 = all killed)
Conditions: 10 µM unless noted
About 83,000 compounds went through this panel and 20% of them were active in at least one assay; those are over-represented in the sample as a whole. The source made the active and inactive calls. The calls were made as follows: active = growth percent below 10; inactive = the rest.
measurementName: growth

Consider the worked cases shown below.
Quick check: growth on T-47D breast, item COc1ccccc1/C(C)=N/NC(=O)CSc1nc2ccccc2c(=O)n1Cc1ccc(S(N)(=O)=O)cc1 ?
97.6% (inactive)

Quick check: growth on T-47D breast, item COc1cccc(C(=O)NNc2nc(Cl)nc(N3CCN(C(c4ccccc4)c4ccccc4)CC3)n2)c1 ?
83.3% (inactive)

Quick check: growth on T-47D breast, item Cc1cccc(NC(=O)Nc2ccc(-c3ccc4c(c3)NC(=O)/C4=C\c3ccc[nH]3)cc2)c1 ?
39.1% (inactive)

Quick check: growth on T-47D breast, item COc1ccc(C(=O)c2cc(C)c(OC)c(C)c2)c(OC)c1OC(=O)C(Cl)Cl ?
59.5% (inactive)

Quick check: growth on T-47D breast, item CCCCCCNC(=O)Oc1ccc(/C(=C(\C)c2ccccc2)c2ccc(OCCCN(C)C)cc2)cc1 ?
46.2% (inactive)

Quick check: growth on T-47D breast, item COc1ccc(C(=O)Cn2c(C(=O)c3ccccc3)nc3ccccc32)cc1 ?
38.1% (inactive)

Quick check: growth on T-47D breast, item C#Cc1cccc(NC(=O)Nc2cccc(NC(=O)CCl)c2)c1 ?
27.8% [8.25 µM] (inactive)

Quick check: growth on T-47D breast, item OCc1cnccc1NCCCOc1ccccc1 ?
101% (inactive)

Quick check: growth on T-47D breast, item O=C(CSc1nc2sc3c(c2c(=O)n1-c1ccc(Cl)cc1)CCCC3)Nc1nc(-c2cccc(Br)c2)cs1 ?
76.9% (inactive)

Quick check: growth on T-47D breast, item CCCCCN1C=C/C(=C\C(=O)N(C)c2ccccc2Br)c2ccccc21 ?
77.3% (inactive)

Please examine the following record next.
Quick check: growth on T-47D breast, item Oc1c(Cl)cc(Cl)c(Cl)c1CNCCNCc1c(O)c(Cl)cc(Cl)c1Cl ?
20.2% (inactive)

====

Tested on: OVCAR-8 ovarian
Assay: NCI-60 one-dose screen, 48 h (100 = growth as untreated, 0 = no growth, -100 = all killed)
Details: 10 µM unless noted
The panel holds about 83,000 compounds, 20% with a hit somewhere; the sample as a whole holds those more often.
Recorded measurements of growth, one per entry
Reply with just the number (in %).

Consider the worked cases shown below.
Quick check: growth on OVCAR-8 ovarian, item CCNC(=O)Oc1ccc(/C(=C(\C)c2ccccc2)c2ccc(OCCN(CC)CC)cc2)cc1 ?
78.3

Quick check: growth on OVCAR-8 ovarian, item Cc1cnc(C(=O)Nc2nc3ccc(S(=O)(=O)Nc4ccc(C5(C(F)(F)F)CC5)cc4)cc3[nH]2)cn1 ?
25.8

Quick check: growth on OVCAR-8 ovarian, item CCC(=O)Oc1ccc(/C(=C(\C)c2ccccc2)c2ccc(OCCN3CCCCC3)cc2)cc1 ?
81.6

Quick check: growth on OVCAR-8 ovarian, item CCCCCN1C=C/C(=C\C(=O)N(C)c2ccccc2Br)c2ccccc21 ?
88.7

Next:
Quick check: growth on OVCAR-8 ovarian, item COc1ccc(C(=O)/C=C/c2cc3ccccc3n3nnnc23)cc1 ?
109

Quick check: growth on OVCAR-8 ovarian, item Nc1nc(Nc2ccccc2SSc2ccccc2Nc2nc(N)nc(-c3ccc(C(F)(F)F)cc3)n2)nc(-c2ccc(C(F)(F)F)cc2)n1 ?
56

Quick check: growth on OVCAR-8 ovarian, item C=C(C)[C@@H]1CC[C@]2(C(=O)N[C@@H](Cc3ccccc3)C(=O)OC)CC[C@]3(C)[C@H](CC[C@@H]4[C@@]5(C)CCC(=O)C(C)(C)[C@@H]5CC[C@]43C)[C@@H]12 ?
100

Quick check: growth on OVCAR-8 ovarian, item CC(=O)Nc1cccc(-c2ccc3c(c2)NC(=O)/C3=C\c2ccc[nH]2)c1 ?
56.4

====

Tested on: IGROV1 ovarian
Experiment: NCI-60 one-dose screen, 48 h (100 = growth as untreated, 0 = no growth, -100 = all killed)
Settings: 10 µM unless noted
The panel holds about 83,000 compounds, 20% with a hit somewhere; the sample as a whole holds those more often.
Label condition met when growth is at or above 30%; anything below gets condition not met.

Solved cases below.
Given COc1c(Cl)c2c(c(OC)c1OC)-c1ccc(SC)c(=O)cc1[C@@H](NC(=O)OCC(F)(F)F)CC2 , state whether its growth is at least 30%.
condition not met

Given CC(=O)Oc1ccc(/C=N/NC(N)=S)nc1 , state whether its growth is at least 30%.
condition met

Given O=[N+]([O-])c1cc(Br)c2cccc3c2c1CC3 , state whether its growth is at least 30%.
condition met

Given Cc1ccc(-n2nc3c(c(C#N)c2=O)CC(c2ccccc2[N+](=O)[O-])C([N+](=O)[O-])=C3O)cc1 (configuration not stated) , state whether its growth is at least 30%.
condition met

Given C[C@@H](Nc1ncnc2ccc(-c3cnc(N)nc3)cc12)c1ccc(F)cc1 , state whether its growth is at least 30%.
condition not met

Next:
Given COc1cc2cc(Oc3cccc(NC(=O)Nc4cc(C(F)(F)F)cc(C(F)(F)F)c4)c3)c(C)nc2cc1OC , state whether its growth is at least 30%.
condition not met

====

System: M14 melanoma
Assay: NCI-60 one-dose screen, 48 h
Settings: 10 µM unless noted
Protocol: Growth inhibition of the M14 human tumor cell line is measured as a screen for anti-cancer activity. Cells are grown in 96 well plates and exposed to the test compound for 48 hours. Compounds are tested at a single concentration, which is 10^-5 M for most compounds. The reported endpoint is percent growth (GI% or GIPRCNT), where numbers from 0 - 100% represent growth inhibition, and numbers from -100% - 0 represent cell death. For example, a value of 40 represents 60% growth inhibition. […]
The panel holds about 83,000 compounds, 20% with a hit somewhere; the sample as a whole holds those more often. Activity calls are given as the source filed them. Rule for the calls: active = growth percent below 10; inactive = the rest.
API: response.call in true (active), false (inactive)

Solved cases below.
GET /call?item= COc1ccc(CCn2cncc2-c2c[nH]c3ccccc23)cc1 returns the recorded outcome of this test.
false

GET /call?item= CCNc1nc2ccc(Nc3ccnc4cc(Cl)ccc34)cc2[nH]1 returns the recorded outcome of this test.
false

GET /call?item= Cc1cc(Cl)nc(N(CCNc2ccnc3cc(Cl)ccc23)Cc2ccccn2)n1 returns the recorded outcome of this test.
false

GET /call?item= CC1(C)NCCC[C@]2(C)[C@H]3CC[C@@H]4[C@H]5[C@H](C(=O)/C=C/c6ccco6)CC[C@]5(CO)CC[C@@]4(C)[C@]3(C)CC[C@@H]12 returns the recorded outcome of this test.
false

GET /call?item= COc1cc(-c2csc(NC(=O)c3cc(F)cc(C(F)(F)F)c3)n2)cc(OC)c1OC returns the recorded outcome of this test.
false

Next:
GET /call?item= COc1cccc(-c2nc3occn3c2-c2ccnc(NCCNS(=O)(=O)c3cccc4ccccc34)n2)c1 returns the recorded outcome of this test.
false

GET /call?item= Cc1cc2cc3ccc(N(C)C)cc3nc2cc1N returns the recorded outcome of this test.
true

GET /call?item= C=C(C)[C@@H]1CC[C@]2(C(=O)N[C@@H](Cc3ccccc3)C(=O)OC)CC[C@]3(C)[C@H](CC[C@@H]4[C@@]5(C)CCC(=O)C(C)(C)[C@@H]5CC[C@]43C)[C@@H]12 returns the recorded outcome of this test.
false

====

Test system: SNB-19 CNS
Assay: NCI-60 one-dose screen, 48 h
Details: 10 µM unless noted
The panel holds about 83,000 compounds, 20% with a hit somewhere; the sample as a whole holds those more often. Active and inactive are the calls of the source. The calls were made as follows: active = growth percent below 10; inactive = the rest.
API: response.call in YES = active, NO = inactive

Solved cases below.
GET /call?item= Nc1nc(Nc2ccccc2SSc2ccccc2Nc2nc(N)nc(-c3cccs3)n2)nc(-c2ccsc2)n1 returns the recorded outcome of this test.
NO

GET /call?item= N#Cc1cc(-c2nc3ccccc3s2)c(=O)n(NS(=O)(=O)c2ccccc2)c1N returns the recorded outcome of this test.
NO

GET /call?item= COc1ccc2[nH]c(O)c(/C=c3/cc4c(c(-c5ccc(F)cc5)n3)=Nc3ccccc3-4)c2c1 returns the recorded outcome of this test.
NO

GET /call?item= Cc1cc2nc3c4cccc(O)c4n(CCN(C)C)c3nc2cc1C returns the recorded outcome of this test.
NO

GET /call?item= CCOC(=O)/C(C#N)=C1/NNC(=Nc2cccnc2)S1 returns the recorded outcome of this test.
NO

GET /call?item= CCNC(=O)Oc1ccc(/C(=C(\C)c2ccccc2)c2ccc(OCCCN(C)C)cc2)cc1 returns the recorded outcome of this test.
NO

Next:
GET /call?item= COC(=O)N[C@H]1CCc2c(Cl)c(OC)c(OC)c(OC)c2-c2ccc(SC)c(=O)cc21 returns the recorded outcome of this test.
NO

GET /call?item= O=C1c2ccc3c4c(ccc(c24)C(=O)N1CCCNCc1ccccc1F)C(=O)N(CCCNCc1ccccc1F)C3=O returns the recorded outcome of this test.
YES

GET /call?item= COc1cc(CC(=O)n2ncc3ccc(N)cc32)cc(OC)c1OC returns the recorded outcome of this test.
NO

GET /call?item= O=C(/C=C/c1c(-c2ccc(Cl)cc2)nn(-c2ccccc2)c1C(F)(F)F)c1ccc(Cl)cc1 returns the recorded outcome of this test.
NO
